Data origin, for the record: PubChem BioAssay (NCI)

Tested on: DU-145 prostate
testName: NCI-60 one-dose screen, 48 h (100 = growth as untreated, 0 = no growth, -100 = all killed)
setupConditions: 10 µM
Experimental: Cells are grown in 96 well plates and exposed to the test compound for 48 hours. Compounds are tested at a single concentration, which is 10^-5 M for most compounds. The reported endpoint is percent growth (GI% or GIPRCNT), where numbers from 0 - 100% represent growth inhibition, and numbers from -100% - 0 represent cell death. For example, a value of 40 represents 60% growth inhibition. A value of 0 means no net growth occurred over the course of the experiment. […]
The panel holds about 83,000 compounds, 20% with a hit somewhere; the sample as a whole holds those more often.
Would you kindly list growth for each of these compounds?
Give bare numbers, in %.

# example entries with known answers
C=CCNC(=O)c1ccc(OC)cc1 ... 124
CCCOC(=O)C(O)c1ccccc1 (configuration not stated) ... 113
CCOC(=O)c1[nH]c(C)c(C(C)=O)c1C ... 93.7

List reported growth for each of these compounds:
1. OCc1cccc2ccccc12
2. CCC/C=C(\C)C(C)(C#N)C(=O)OCC (configuration not stated)
3. CC(C)(O)C#CC#CC(C)(C)O
4. CC(C)NC(=O)OCc1c(COC(=O)NC(C)C)c(-c2ccc(Cl)c(Cl)c2)n2c1SCC2
5. Cc1ccc(/C=C2\SC(=S)N(c3ccc(F)cc3)C2=O)o1
6. CC(=O)OCCC(C)CCC=C(C)C (configuration not stated)
7. O=C(O)[C@@H]1[C@H]2C[C@H]3c4[nH]c5ccccc5c4CCN3C[C@@H]2CC[C@@H]1O

Output line:
[108, 124, 113, 41.6, 95.5, 107, 106]
